# experimental-system: Protein mono-ADP-ribosyltransferase TIPARP (Homo sapiens, UniProt Q7Z3E1)
# Sequence (Q7Z3E1 whole entry): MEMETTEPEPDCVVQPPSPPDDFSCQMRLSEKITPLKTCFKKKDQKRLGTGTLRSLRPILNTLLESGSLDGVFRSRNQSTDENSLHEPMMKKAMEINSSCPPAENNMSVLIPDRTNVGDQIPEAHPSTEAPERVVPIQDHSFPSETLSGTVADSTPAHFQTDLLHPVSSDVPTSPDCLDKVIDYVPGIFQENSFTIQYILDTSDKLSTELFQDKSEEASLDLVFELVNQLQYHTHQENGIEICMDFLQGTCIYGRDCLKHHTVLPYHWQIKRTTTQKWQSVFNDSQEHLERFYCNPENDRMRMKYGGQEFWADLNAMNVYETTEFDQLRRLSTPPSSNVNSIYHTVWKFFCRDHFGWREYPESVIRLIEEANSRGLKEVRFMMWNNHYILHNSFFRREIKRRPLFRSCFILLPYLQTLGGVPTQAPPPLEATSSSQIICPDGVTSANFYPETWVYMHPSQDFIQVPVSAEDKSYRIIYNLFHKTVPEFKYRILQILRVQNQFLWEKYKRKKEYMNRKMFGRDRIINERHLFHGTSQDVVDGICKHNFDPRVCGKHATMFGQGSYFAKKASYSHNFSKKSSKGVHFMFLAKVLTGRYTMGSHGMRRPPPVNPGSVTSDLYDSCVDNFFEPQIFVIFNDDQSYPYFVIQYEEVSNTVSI
# assay-protocol: Enzymatic Assay: Displacement of Probe A, a biotinylated probe binding to the TIPARP active site, was measured using a time-resolved fluorescence energy transfer (TR-FRET) assay. 20 nL of a dose response curve of each test compound was spotted in black 384-well polystyrene proxiplates (Perkin Elmer) using a Mosquito (TTP Labtech). Reactions were performed in a 8 μl volume by adding 6 μL of TIPARP and Probe A in assay buffer (20 mM HEPES pH=8, 100 mM NaCl, 0.1% bovine serum albumin, 2 mM DTT and 0.002% Tween20), incubating with test compound at 25° C. for 30 min, then adding 2 μL of ULight-anti 6×His and LANCE Eu-W1024 labeled streptavidin (Perkin Elmer). The final concentrations of TIPARP and Probe A were 6 nM and 2 nM, respectively. The final concentration of ULight-anti 6×His and LANCE Eu-W1024 labeled streptavidin were 4 nM and 0.25 nM, respectively. Reactions were incubated at 25° C. for an additional 30 min, then read on an Envision platereader equipped with a LANCE/DELFIA top mirror (Perkin Elmer) using excitation of 320 nm and emission of 615 nm and 665 nM with a […]. The ratio of the 665/615 nm emission were calculated for each well to determine the amount of complex of TIPARP and Probe Ain each well. Control wells containing a negative control of 0.25% DMSO vehicle or a positive control of 100 μM 5-(5-(piperidin-4-yloxy)isoindolin-2-yl)-4-(trifluoromethyl)pyridazin-3(2H)-one were used to calculate the % inhibition.
test-readout: IC50

### Prompt What IC50 value was documented for this compound, C[C@@H](CO[C@@H]1CCN(C2CCN(c3ncc(Br)cn3)CC2)C1=O)Nc1cn[nH]c(=O)c1C(F)(F)F ?
### Response < 100 nM
